# Tested on: RPMI-8226 leukemia
# test_name: NCI tumour cell line growth inhibition, 48 h; in the data active means GI50 below about 0.43 µM; inactive means the rest
Give your call using only these classes: 1 (active), 0 (inactive)

[
  {
    "compound": "O=C1OC(O)[C@@H]2[C@H]1[C@H]1CC[C@@H]2O1 (some centres undefined)",
    "discrete_label": 0
  },
  {
    "compound": "CCCCCCCC(=O)SCC/C=C/[C@@H]1CC(=O)NCc2cc(ccn2)C2=N[C@@](C)(CS2)C(=O)N[C@@H](C(C)C)C(=O)O1",
    "discrete_label": 1
  },
  {
    "compound": "CN1CCN(CCCn2c(=O)c3sc4ncccc4c3n3nnc(-c4ccccc4)c23)CC1",
    "discrete_label": 0
  },
  {
    "compound": "O=c1c2sccc2n(CC2COc3ccccc3O2)c(=O)n1O (centres undefined)",
    "discrete_label": 0
  },
  {
    "compound": "COc1ccc(-c2nnc(COc3ccc(NC(=O)Nc4cc(C(F)(F)F)cc(C(F)(F)F)c4)cc3F)o2)cc1",
    "discrete_label": 0
  },
  {
    "compound": "CC[C@H](Nc1ncnc2nc[nH]c12)c1oc2ccccc2c(=O)c1-c1cccc(F)c1",
    "discrete_label": 0
  }
]

Req: Check the results log: what was the call for CC(C)[C@H]1COC(=O)N1[C@@H]1C(=O)N([C@@H](CCC(=O)N2CCN(C3CCCC3)CC2)C(=O)N[C@@H]2CCCc3ccccc32)[C@@H]1/C=C/c1cccc(Br)c1 ?
Resp: 0

Req: Check the results log: what was the call for Nc1ncnc2n[nH]c(Nc3ccc(F)cc3)c12 ?
Resp: 0

Req: Check the results log: what was the call for COc1ncnc(NS(=O)(=O)c2ccc(N=C3C(=O)N(CN4CCN(c5c(F)cc6c(=O)c(C(=O)O)cn(C7CC7)c6c5OC)CC4C)c4ccc(Cl)cc43)cc2)c1OC (centres undefined) ?
Resp: 0

====

# Test system: UO-31 renal
# test_name: NCI tumour cell line growth inhibition, 48 h
Reported TGI values are given for each entry in this list.
Give just the number in µM; leave the unit off.

Observe how each entry below is paired with its result.
[
  {
    "compound": "Cc1cc(N(CCOS(C)(=O)=O)CCOS(C)(=O)=O)ccc1C=O",
    "value_unit": "µM",
    "recorded_value": 35.1
  },
  {
    "compound": "Nc1ncnc2c1nnn2C1OC(CO)C(O)C1O (stereo unspecified)",
    "value_unit": "µM",
    "recorded_value": 6.02
  }
]

Now consider a different compound.
Req: Form field: reported TGI of CCCCCCCCC/C=C1\CCC(CN2CCOCC2)C1=O (stereo unspecified)
Resp: 14.9

====

# Tested on: NCI-H226 lung
# test_name: NCI tumour cell line growth inhibition, 48 h
Reported TGI values are given for each entry in this list.

Observe how each entry below is paired with its result.
[
  {
    "record_smiles": "[O-][n+]1ccccc1Sc1nc(Sc2cccc[n+]2[O-])nc(Sc2cccc[n+]2[O-])n1",
    "recorded_value": "6.78 µM"
  },
  {
    "record_smiles": "O=C(CSc1ccc(Cl)cc1)Nc1ccc(-c2nc3ccccc3s2)c(Cl)c1",
    "recorded_value": "64.1 µM"
  },
  {
    "record_smiles": "COc1cc2c3c(n(C)c(=O)c2cc1OC)-c1cc2c(cc1/C3=C\\CCN)OCO2",
    "recorded_value": "2.42 µM"
  },
  {
    "record_smiles": "CCN(CC)c1ccc(-c2cc(-c3cc(OC)c(OC)c(OC)c3)nc(N3CCOCC3)c2C#N)cc1",
    "recorded_value": "42.2 µM"
  },
  {
    "record_smiles": "CC(C)[C@H]1COC(=O)N1[C@@H]1C(=O)N([C@@H](CCC(=O)N2CCN(C3CCCC3)CC2)C(=O)N[C@@H]2CCCc3ccccc32)[C@@H]1/C=C/c1cccc(Br)c1",
    "recorded_value": "15.6 µM"
  },
  {
    "record_smiles": "CCN(CC)CCN(C(=Nc1ccccc1)N1CCOCC1)c1ccccc1",
    "recorded_value": "> 100 µM"
  }
]

Req: Form field: reported TGI of O=C1NCCN1/N=C/c1c(Cl)n(-c2ccccc2)c2ccccc12
Resp: 54 µM

Req: Form field: reported TGI of OCCCCCNCc1cc2cc3c(cc2c2cc(OCc4ccccc4)ccc12)OCO3
Resp: 3.41 µM

Req: Form field: reported TGI of CCN1CCN(c2nc(C)cc(N(CCNc3ccnc4cc(Cl)ccc34)Cc3ccc4c(c3)OCO4)n2)CC1
Resp: 33.6 µM

====

Reported TGI values are given for each entry in this list.
# Tested on: M14 melanoma
# test_name: NCI tumour cell line growth inhibition, 48 h
Give just the number in µM; leave the unit off.

Observe how each entry below is paired with its result.
[
  {
    "record_smiles": "CC1=C[C@@H]2Cc3nc4cc(Cl)ccc4c(N)c3[C@H](C1)C2",
    "TGI (µM)": 18.1
  },
  {
    "record_smiles": "[Cl-].[La+3].[O-]/N=C(\\c1ccccc1)c1ccccn1.[O-]/N=C(\\c1ccccc1)c1ccccn1.[O-]/N=C(\\c1ccccc1)c1ccccn1",
    "TGI (µM)": 41.4
  },
  {
    "record_smiles": "O=c1c2sc(=S)n(-c3ccc(F)cc3)c2ncn1/N=C/c1ccc(F)cc1F",
    "TGI (µM)": 67.4
  }
]

Now consider a different compound.
Req: Form field: reported TGI of Cc1cc(/C=C/c2ccc3cc(N(C)C)ccc3[n+]2C)c(C)n1-c1ccccc1
Resp: 1.25

====

# Test system: SW-620 colon
# test_name: NCI tumour cell line growth inhibition, 48 h; in the data active = GI50 below about 0.43 µM; inactive = the rest
Give your call using only these classes: TRUE for active, FALSE for inactive

For orientation, consider the following solved cases.
[
  {
    "compound": "O=C(CSc1ccc(Cl)cc1)Nc1ccc(-c2nc3ccccc3s2)c(Cl)c1",
    "discrete_label": "FALSE"
  },
  {
    "compound": "O=C(Nc1ccc(Cl)cc1)c1cccc(NC2=C(Cl)C(=O)N(Cc3ccccc3)C2=O)c1",
    "discrete_label": "FALSE"
  },
  {
    "compound": "C=C1NC(=O)C(C(C)CC)NC(=O)C2CSCC(NC(=O)CCC(=O)O)C(=O)NC(Cc3ccccc3)C(=O)NC(C)C(=O)NC(CC(C)CC)C(=O)NC(C(=O)NC(Cc3ccccc3)C(=O)N3CCCC3C(=O)N2)C(C)OC(=O)C(CO)NC(=O)C(C(O)COC)N(C)C(=O)C(C(C)C)NC(=O)C(CC(C)CC)NC1=O (stereo not given)",
    "discrete_label": "TRUE"
  }
]

Lab note: next compound to report on.
Req: Check the results log: what was the call for COc1ccc(/C=C(/C#N)n2nnc3cccc(F)c32)cc1 ?
Resp: TRUE

====

# Test system: UACC-62 melanoma
# test_name: NCI tumour cell line growth inhibition, 48 h
Reported TGI values are given for each entry in this list.

Observe how each entry below is paired with its result.
[
  {
    "molecule": "Cc1cn(C2CC(O)C(CO)O2)c(=O)[nH]c1=O (stereo not drawn)",
    "recorded_value": "3.68 mM"
  },
  {
    "molecule": "CCOC(=O)c1cn2c(nc1=O)N[C@H]1CCCC[C@@H]12",
    "recorded_value": "> 0.1 mM"
  }
]

Now consider a different molecule.
Req: Form field: reported TGI of O=C(/C=C/c1ccc(Cl)cc1)c1ccc(Nc2ccnc3cc(Cl)ccc23)cc1
Resp: > 0.1 mM

====

# System: CCRF-CEM leukemia
# test_name: NCI tumour cell line growth inhibition, 48 h; in the data active = GI50 below about 0.43 µM; inactive = the rest
Give your call using only these classes: active, inactive

For orientation, consider the following solved cases.
[
  {
    "molecule": "O=c1c2sccc2n(CC2COc3ccccc3O2)c(=O)n1O (centres undefined)",
    "discrete_label": "inactive"
  },
  {
    "molecule": "COc1cc(/C=C/c2cc(O)c(C(C)=O)c(O)c2)cc2c1O[C@]1(C)CC[C@@H](O)C(C)(C)[C@H]1C2",
    "discrete_label": "inactive"
  },
  {
    "molecule": "[Cl-].[La+3].[O-]/N=C(\\c1ccccc1)c1ccccn1.[O-]/N=C(\\c1ccccc1)c1ccccn1.[O-]/N=C(\\c1ccccc1)c1ccccn1",
    "discrete_label": "inactive"
  }
]

Req: Check the results log: what was the call for COc1ccc(/C=C(/C#N)n2nnc3cccc(F)c32)cc1 ?
Resp: inactive

Req: Check the results log: what was the call for COc1ccc([C@H]2[C@@H](F)C(=O)N2c2cc(OC)c(OC)c(OC)c2)cc1F ?
Resp: active

Req: Check the results log: what was the call for COc1cc2c3c(n(C)c(=O)c2cc1OC)-c1cc2c(cc1/C3=C\CCN)OCO2 ?
Resp: active

From: PubChem BioAssay (NCI)
